Measured pIC50 accompanies every entry in the list below.
Target: RIPK2 (KD)/XIAP (BIR2) (Homo sapiens, UniProt O43353)
Construct: made in house; host or cells: baculovirus-infected Sf9 cells
Sequence (O43353 1-310): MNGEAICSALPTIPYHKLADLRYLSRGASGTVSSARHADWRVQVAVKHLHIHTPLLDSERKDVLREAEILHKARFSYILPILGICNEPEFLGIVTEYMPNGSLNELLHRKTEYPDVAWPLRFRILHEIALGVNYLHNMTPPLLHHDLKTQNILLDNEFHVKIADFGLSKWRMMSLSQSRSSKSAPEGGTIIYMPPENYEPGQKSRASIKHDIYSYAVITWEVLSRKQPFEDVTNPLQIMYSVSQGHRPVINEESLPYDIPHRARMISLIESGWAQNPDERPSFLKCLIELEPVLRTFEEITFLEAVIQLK
Experiment: RIPK2-XIAP binding competition PPI assay (TR-FRET)
Details: GST-RIPK2 / His-XIAP (BIR2)-avi, 120 min at 23° C.
pIC50: −log10 of the molar value.

Some solved entries appear below for comparison.
{"columns": ["Compound", "pIC50"],
 "data": [
  ["CCn1nc(-c2cnc3cc(OCCO)c(S(=O)(=O)C(C)(C)C)cn23)cc1C(=O)NCc1cc(C)sn1 [Example 129]", "> 8.00"],
  ["COc1cc2ncc(-n3cc(N4CCC(c5ccccc5)C4=O)cn3)n2cc1S(=O)(=O)C(C)(C)C (single isomer, unassigned) [Example 182]", "< 6.00"],
  ["COc1cc2ncc(-n3cc(NC(=O)[C@H](C)c4ccccc4)cn3)n2cc1S(=O)(=O)C(C)(C)C [Example 161]", "6.00 to 7.00"]
]}

Input line: Which measured pIC50 value corresponds to COc1cc2ncc(-c3cc(C(=O)NCc4cccnc4)n(C)n3)n2cc1S(=O)(=O)C(C)(C)C [Example 27] ?
Output line: < 6.00

Input line: # repeat for COc1cc2ncc(-n3cc(NC(=O)Cc4cccc(F)c4Cl)cn3)n2cc1S(=O)(=O)C(C)(C)C [Example 156]
Output line: < 6.00

Input line: # repeat for COc1cc2ncc(-n3cc(NC(=O)Cc4cc(F)ccc4Cl)cn3)n2cc1S(=O)(=O)C(C)(C)C [Example 157]
Output line: < 6.00

Input line: # repeat for CCn1nc(-c2cnc3cc(OCCO)c(S(=O)(=O)C(C)(C)C)cn23)cc1C(=O)N[C@H](C)c1cc(C)sn1 [Example 132]
Output line: > 8.00

Input line: # repeat for COc1cc2ncc(-c3cc(C(=O)NCc4noc(C)n4)n(C)n3)n2cc1S(=O)(=O)C(C)(C)C [Example 77]
Output line: 6.00 to 7.00

Input line: # repeat for COc1cc2ncc(-c3cc(C(=O)NCc4cccc(F)n4)n(C)n3)n2cc1S(=O)(=O)C(C)(C)C [Example 52]
Output line: 6.00 to 7.00

Input line: # repeat for C[C@@H](NC(=O)c1cc(-c2cnc3cc(OCCO)c(S(=O)(=O)C(C)(C)C)cn23)nn1C)c1ccccc1 [Example 32]
Output line: > 8.00

Input line: # repeat for CCn1nc(-c2cnc3cc(OCCO)c(S(=O)(=O)C(C)(C)C)cn23)cc1C(=O)NCc1ccsn1 [Example 128]
Output line: > 8.00

Input line: # repeat for COc1cc2ncc(-c3cc(C(=O)NCc4ccncc4)n(C)n3)n2cc1S(=O)(=O)C(C)(C)C [Example 29]
Output line: < 6.00

Input line: # repeat for CCn1nc(-c2cnc3cc(OC)c(S(=O)(=O)C(C)(C)C)cn23)cc1C(=O)N[C@H](C)c1ccccn1 [Example 95]
Output line: > 8.00

Input line: # repeat for COc1cc2ncc(-c3cc(C(=O)NCc4ncccn4)n(C)n3)n2cc1S(=O)(=O)C(C)(C)C [Example 66]
Output line: 6.00 to 7.00

Input line: # repeat for CCn1nc(-c2cnc3cc(OC)c(S(=O)(=O)C(C)(C)C)cn23)cc1C(=O)N[C@H](C)c1ccn(C)n1 [Example 125]
Output line: 7.00 to 8.00

Input line: # repeat for COc1cc2ncc(-c3cc(C(=O)NC(C)C)n(C)n3)n2cc1S(=O)(=O)C(C)(C)C [Example 37]
Output line: < 6.00

Input line: # repeat for COc1cc2ncc(-c3cc(C(=O)N[C@H]4CCc5cccnc54)n(C)n3)n2cc1S(=O)(=O)C(C)(C)C [Example 64]
Output line: 7.00 to 8.00

Input line: # repeat for COc1cc2ncc(-n3cc(NC(=O)c4ccccc4)cn3)n2cc1S(=O)(=O)C(C)(C)C [Example 170]
Output line: < 6.00

Input line: # repeat for COc1cc2ncc(-c3cc(C(=O)N[C@H](C)c4ncccc4F)n(C4CN(C(=O)OC(C)(C)C)C4)n3)n2cc1S(=O)(=O)C(C)(C)C [Example 140]
Output line: 7.00 to 8.00

Input line: # repeat for COc1cc2ncc(-c3cc(C(=O)NCc4cn5ccccc5n4)n(C)n3)n2cc1S(=O)(=O)C(C)(C)C [Example 22]
Output line: < 6.00

Input line: # repeat for COc1cc2ncc(-n3cc(NC(=O)[C@H]4C[C@H]4c4ccccc4)cn3)n2cc1S(=O)(=O)C(C)(C)C [Example 171]
Output line: 6.00 to 7.00

Input line: # repeat for COc1cc2ncc(-c3cc(C(=O)NCc4[nH]ncc4C)n(C)n3)n2cc1S(=O)(=O)C(C)(C)C [Example 43]
Output line: 6.00 to 7.00

* * *

Molecular target: RIPK2 (KD)/XIAP (BIR2) (Homo sapiens)
Construct: made in house; host or cells: baculovirus-infected Sf9 cells
Test: RIPK2-XIAP binding competition PPI assay (TR-FRET)
Details: 50 nM of GSK583 = -100% activity, read-out: PPI Amax
Readout type: Emax

Some solved entries appear below for comparison.
{"columns": ["Compound", "Emax"],
 "data": [
  ["COc1cc2ncc(-c3cc(C(=O)N[C@H](C)c4ccc(F)cc4)n(C)n3)n2cc1S(=O)(=O)C(C)(C)C [Example 12]", "≥ 80%"],
  ["COc1cc2ncc(-c3cc(C(=O)NCc4c5ccccc5nn4C)n(C)n3)n2cc1S(=O)(=O)C(C)(C)C [Example 16]", "55 to 80%"],
  ["COc1cc2ncc(-c3cc(C(=O)NCC4CCC4)n(C)n3)n2cc1S(=O)(=O)C(C)(C)C [Example 39]", "≥ 80%"],
  ["COc1cc2ncc(-c3cc(C(=O)N(C)C)n(C)n3)n2cc1S(=O)(=O)C(C)(C)C [Example 5]", "≤ 30%"],
  ["COc1cc2ncc(-c3cc(C(=O)NCc4ccnn4C)n(C)n3)n2cc1S(=O)(=O)C(C)(C)C [Example 70]", "30 to 55%"]
]}

Input line: Which measured Emax value corresponds to COc1cc2ncc(-c3cc(C(=O)N[C@H](C)c4ncccc4F)n(C4CN(C)C4)n3)n2cc1S(=O)(=O)C(C)(C)C [Example 147] ?
Output line: ≥ 80%

Input line: # repeat for COc1cc2ncc(-c3cc(C(=O)NCc4cnccn4)n(C)n3)n2cc1S(=O)(=O)C(C)(C)C [Example 67]
Output line: 55 to 80%

Input line: # repeat for COc1cc2ncc(-n3cc(NC(=O)Cc4ccccc4)cn3)n2cc1S(=O)(=O)C(C)(C)C [Example 160]
Output line: ≥ 80%

Input line: # repeat for COc1cc2ncc(-c3cc(C(=O)N[C@H](C)c4ccccc4F)n(C)n3)n2cc1S(=O)(=O)C(C)(C)C [Example 10]
Output line: ≥ 80%

* * *

Molecular target: RIPK2 (KD)/XIAP (BIR2) (Homo sapiens)
Experiment: RIPK2-XIAP binding competition PPI assay (TR-FRET)
Settings: GST-RIPK2 / His-XIAP (BIR2)-avi, 120 min at 23° C.
Measured IC50 accompanies every entry in the list below.

Some solved entries appear below for comparison.
{"columns": ["Smiles structure", "Assayed target", "IC50"],
 "data": [
  ["COc1cc2ncc(-n3cc(NC(=O)[C@@H]4C[C@H]4c4ccccc4)cn3)n2cc1S(=O)(=O)C(C)(C)C", "RIPK2 (KD)/XIAP (BIR2) (Homo sapiens)", "> 1000 nM"],
  ["C[C@@H](NC(=O)c1cc(-c2cnc3cc(OCCO)c(S(=O)(=O)C(C)(C)C)cn23)nn1C)c1nccs1", "RIPK2 (KD)/XIAP (BIR2) (Homo sapiens)", "10 to 100 nM"],
  ["COc1cc2ncc(-c3cc(C(=O)N[C@@H](C)c4cn(C)cn4)n(C)n3)n2cc1S(=O)(=O)C(C)(C)C", "RIPK2 (KD)/XIAP (BIR2) (Homo sapiens)", "> 1000 nM"],
  ["COc1cc2ncc(-c3cc(C(=O)NCc4ccnn4C)n(C)n3)n2cc1S(=O)(=O)C(C)(C)C", "RIPK2 (KD)/XIAP (BIR2) (Homo sapiens)", "> 1000 nM"],
  ["COc1cc2ncc(-c3cc(C(=O)N[C@H](C)c4ccc(F)cc4)n(C)n3)n2cc1S(=O)(=O)C(C)(C)C", "RIPK2 (KD)/XIAP (BIR2) (Homo sapiens)", "100 to 1000 nM"]
]}

Input line: Which measured IC50 value corresponds to `C[C@@H](NC(=O)c1cc(-c2cnn3cc(OCCO)c(S(=O)(=O)C(C)(C)C)cc23)nn1C)c1ncccc1F` ?
Output line: 10 to 100 nM

Input line: # repeat for `CCn1nc(-c2cnc3cc(OCCO)c(S(=O)(=O)C(C)(C)C)cn23)cc1C(=O)N[C@H](C)c1ncc(C)s1`
Output line: < 10 nM
